Target: Lipoprotein lipase (Homo sapiens, UniProt P06858)
Sequence (P06858 whole entry): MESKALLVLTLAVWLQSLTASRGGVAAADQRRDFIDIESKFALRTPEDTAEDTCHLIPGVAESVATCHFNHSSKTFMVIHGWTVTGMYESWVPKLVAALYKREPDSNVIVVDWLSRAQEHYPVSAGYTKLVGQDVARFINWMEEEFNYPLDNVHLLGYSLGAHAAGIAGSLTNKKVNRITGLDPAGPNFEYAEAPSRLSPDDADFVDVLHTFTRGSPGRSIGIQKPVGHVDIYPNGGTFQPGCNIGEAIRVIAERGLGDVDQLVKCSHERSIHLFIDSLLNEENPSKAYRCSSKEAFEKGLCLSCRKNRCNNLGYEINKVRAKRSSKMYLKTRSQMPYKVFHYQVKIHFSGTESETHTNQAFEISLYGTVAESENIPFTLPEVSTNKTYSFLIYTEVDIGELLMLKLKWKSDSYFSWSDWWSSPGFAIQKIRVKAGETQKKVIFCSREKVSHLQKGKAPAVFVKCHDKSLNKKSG
Test: Inhibition of human lipoprotein lipase expressed using recombinant adenovirus using glycerol-tri[9,10(n)-3H]oleate after 1 hr by vesicle assay
measurement-name: pIC50
Reminder that pIC50 is minus the log10 of a molar concentration.

A selection of reference data follows.
smiles_repr=CCCCCc1ccc(B(O)O)cc1 reported_measurement=4.82
smiles_repr=CCCCCCCCCc1ccc(B2OC(C)(C)C(C)(C)O2)cc1 reported_measurement=4.30
smiles_repr=CCCCCCCCCCCc1ccc(B(O)O)cc1 reported_measurement=4.30
smiles_repr=CCCCCCCCCc1ccc(B(O)O)cc1 reported_measurement=4.38
smiles_repr=CC1(C)OB(c2ccc(-c3ccc4ccccc4c3)cc2)OC1(C)C reported_measurement=4.66

Recorded pIC50 for "CCCCCc1ccc(B2OC(C)(C)C(C)(C)O2)cc1" on Lipoprotein lipase (Homo sapiens, UniProt P06858) was 4.30

Recorded pIC50 for "CCc1ccc(B(O)O)cc1" on Lipoprotein lipase (Homo sapiens, UniProt P06858) was 5.05

Recorded pIC50 for "CC1(C)OB(c2ccc(-c3cccs3)cc2)OC1(C)C" on Lipoprotein lipase (Homo sapiens, UniProt P06858) was 5.15

Recorded pIC50 for "CC1(C)OB(c2ccc(-c3ccoc3)cc2)OC1(C)C" on Lipoprotein lipase (Homo sapiens, UniProt P06858) was 4.82

Recorded pIC50 for "CC1(C)OB(c2ccc(-c3ccccc3)cc2)OC1(C)C" on Lipoprotein lipase (Homo sapiens, UniProt P06858) was 5.36
